- target: MAL^TIR (Homo sapiens)
- Construct: MAL (residues 79–221); 6xHis; made in house; host or cells: E. coli BL21 (DE3)
- Sequence (P58753 79-221): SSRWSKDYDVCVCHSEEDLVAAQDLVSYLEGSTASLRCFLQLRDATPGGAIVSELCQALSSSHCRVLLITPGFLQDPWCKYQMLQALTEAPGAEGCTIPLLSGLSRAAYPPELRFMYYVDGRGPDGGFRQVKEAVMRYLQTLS
- measurement-description: T‐Surf phage library (P8 and P3) selection against MAL^TIR, four rounds, NGS read counts
- Format: binding
- experimental-setup: P3_MAL: rank by count after grouping
- Experimental: T‐Surf libraries were screened against the immobilized TIR domains of two major human TLR adaptor proteins, MAL^TIR and MyD88^TIR, allowing cross‐species selection of TIR‐binding motifs with 190 946 TIR‐derived peptides in a single binding assay (Scheme 1). Enriched phage pools from the fourth round of selection were analyzed using NGS after barcoding the peptide‐coding regions of the phage pools. […]
// reported Rank (after) for each item listed

macromolecule-sequence: PNLRTTVLKYLIRTKT
Rank (after): 446

macromolecule-sequence: KNLFNELVRKNLRTFM
Rank (after): 458

macromolecule-sequence: KLRAWRDALRNIANIF
Rank (after): 428

macromolecule-sequence: SSFREGLASAGTEQK
Rank (after): 156

macromolecule-sequence: KMQKWKEALHQFHSWV
Rank (after): 108

macromolecule-sequence: RGFLSHLYQGLKNRGI
Rank (after): 423

macromolecule-sequence: YNFISHLYDALHQFHSWV
Rank (after): 150

macromolecule-sequence: MVRVKAFHKRLKTALG
Rank (after): 438

macromolecule-sequence: LGFLSHLALNLQAKEH
Rank (after): 399

macromolecule-sequence: ESILNQLRHHLQAKDH
Rank (after): 170

macromolecule-sequence: RHFAGLLYDRLTKTGV
Rank (after): 414

macromolecule-sequence: RWFWDKLIYALSRNTH
Rank (after): 471

macromolecule-sequence: KTLAGLLYDHLFRLRL
Rank (after): 101

macromolecule-sequence: YAFTGHLHRYLVQRA
Rank (after): 137

macromolecule-sequence: SSCLEGLWRLLELSKK
Rank (after): 476

macromolecule-sequence: LNWGDPYFWRKLRYAM
Rank (after): 185

macromolecule-sequence: YAFSGHLLHDLVLIRE
Rank (after): 427

macromolecule-sequence: YAFTGHLHRYLVQREPAGN
Rank (after): 413

macromolecule-sequence: LELGDPYFWSKLRYAM
Rank (after): 453

macromolecule-sequence: FMSHLYQGLKNRGIFTF
Rank (after): 113

macromolecule-sequence: EWIREGLWRLLELSKK
Rank (after): 135

macromolecule-sequence: VRQNFISHLYDALHRNRI
Rank (after): 140

macromolecule-sequence: HQAFWKRPWAKLKPPT
Rank (after): 472

macromolecule-sequence: SSFRKGLCRLLELSKK
Rank (after): 463

macromolecule-sequence: YAFTGHLHRSLVQSGV
Rank (after): 154

macromolecule-sequence: LKEESWRRALERAGKL
Rank (after): 410

macromolecule-sequence: SSLREVLWRLLELSKK
Rank (after): 178

macromolecule-sequence: FLNFRGLYVRNYFLGP
Rank (after): 462

macromolecule-sequence: YAFTGHLHRYLVQRAL
Rank (after): 104

macromolecule-sequence: YAFTGHLHRYLVQRDM
Rank (after): 391

macromolecule-sequence: KEVEGWRDALTAAANLSGW
Rank (after): 112

macromolecule-sequence: DWFLSHLRHHLQAKDH
Rank (after): 183

macromolecule-sequence: FMSHLRHHLQAKDH
Rank (after): 166

macromolecule-sequence: PKLRTKVLKYQMRTKT
Rank (after): 426

macromolecule-sequence: LSVESWRQALEKAGQL
Rank (after): 392

macromolecule-sequence: NQCRNALTAAANLKGW
Rank (after): 146

macromolecule-sequence: YAFTGHLHRYLVQRGEP
Rank (after): 443
